Form field: background-corrected fluorescence (one value per entry).
assay-notes: background-corrected fluorescence of 3'-dye-labeled ssDNA relative to brightest sequence (3'-GCGCG) (fraction); higher = brighter dye fluorescence (less quenching)
measurement-conditions: dye: Cy5 (3' terminal)
Please reply with the value in numeric form only.

# annotated cases, reported background-corrected fluorescence shown
- entry-sequence: "TTTTTTGATGAGCATGCTGATTTTTTTTTTTTTTTCCTAC [CATCC]"
  readout-number: 0.306
- entry-sequence: "TTTTTTGCTCAGCATCATCATTTTTTTTTTTTTTTAGTGG [GGTGA]"
  readout-number: 0.546

Supply recorded background-corrected fluorescence for TTTTTTCATCATGCGCATGATTTTTTTTTTTTTTTGGATC [CTAGG] here. 0.35

Answer with the recorded background-corrected fluorescence for the sequence listed here: TTTTTTCATGATGCTGCTCATTTTTTTTTTTTTTTGCAAG [GAACG] 0.422

====

background-corrected fluorescence reference
assay-notes: background-corrected fluorescence of 3'-dye-labeled ssDNA relative to brightest sequence (3'-GCGCG) (fraction); higher = brighter dye fluorescence (less quenching)
measurement-conditions: dye: Cy5 (3' terminal)
Write the number on its own, no unit after it.

Study these solved cases before continuing.
- entry-sequence: "TTTTTTGCGCATGCGCATGCTTTTTTTTTTTTTTTATATA"
  background-corrected fluorescence: 0.431
- entry-sequence: "TTTTTTGATGCGCATGATCATTTTTTTTTTTTTTTCATCG [GCTAC]"
  background-corrected fluorescence: 0.375
- entry-sequence: "TTTTTTCATGAGCATGCGCATTTTTTTTTTTTTTTGCTAT [TATCG]"
  background-corrected fluorescence: 0.376
- entry-sequence: "TTTTTTCATGATGATCATGCTTTTTTTTTTTTTTTGCCGA [AGCCG]"
  background-corrected fluorescence: 0.547
- entry-sequence: "TTTTTTGCTGAGCATGCTCATTTTTTTTTTTTTTTACTAG [GATCA]"
  background-corrected fluorescence: 0.433
- entry-sequence: "TTTTTTCATGCGCATCATCATTTTTTTTTTTTTTTGATGG [GGTAG]"
  background-corrected fluorescence: 0.482

Please list background-corrected fluorescence recorded for the sequence TTTTTGCAGCATGCTGATGATTTTTTTTTTTTTTTTTACC [CCATT] 0.286

Tell me background-corrected fluorescence reported for TTTTTTGAGCATGATCATCATTTTTTTTTTTTTTTCTCGG [GGCTC] 0.508

Using the record for TTTTTTCATGCTCATGCTGCTTTTTTTTTTTTTTTGAGAA [AAGAG] , state its measured background-corrected fluorescence. 0.513

Supply background-corrected fluorescence value. Item: TTTTTTCATGAGCAGCATGATTTTTTTTTTTTTTTGCTTC [CTTCG] 0.285

====

assay-notes: background-corrected fluorescence of 3'-dye-labeled ssDNA relative to brightest sequence (3'-GCGCG) (fraction); higher = brighter dye fluorescence (less quenching)
measurement-conditions: dye: Cy3 (3' terminal)
measurement-name: background-corrected fluorescence
Write the value as a bare number.

Below are worked cases with known answers.
- entry-sequence: "TTTTTTGCTGCTGCTGCTGATTTTTTTTTTTTTTTAAAAC [CAAAA]"
  background-corrected fluorescence: 0.461
- entry-sequence: "TTTTTTCATGATGCTCAGCATTTTTTTTTTTTTTTGCAGT [TGACG]"
  background-corrected fluorescence: 0.607
- entry-sequence: "TTTTTGCATGCTCAGCAGCATTTTTTTTTTTTTTTTAGTT [TTGAT]"
  background-corrected fluorescence: 0.592
- entry-sequence: "TTTTTTGATGAGCATCAGCATTTTTTTTTTTTTTTCCTGT [TGTCC]"
  background-corrected fluorescence: 0.584
- entry-sequence: "TTTTTTCATGCTCAGCAGCATTTTTTTTTTTTTTTGAGTT"
  background-corrected fluorescence: 0.621

Quote background-corrected fluorescence reported for TTTTTTGCTCATGAGCATGATTTTTTTTTTTTTTTAGCTC [CTCGA] please. 0.408

State, in one line, measured background-corrected fluorescence of TTTTTGCATCATGCGCATCATTTTTTTTTTTTTTTTGATG [GTAGT] 0.53

Tell me measured background-corrected fluorescence for TTTTTTGAGCATGCTGATGCTTTTTTTTTTTTTTTCTACA [ACATC] please. 0.498

Tell me measured background-corrected fluorescence for TTTTTGCATGATGAGCATGCTTTTTTTTTTTTTTTTCCTA [ATCCT] please. 0.455

Let me know recorded background-corrected fluorescence for TTTTTGCATCATGATGCTGATTTTTTTTTTTTTTTTGCAC [CACGT] , thanks. 0.415

====

assay-notes: background-corrected fluorescence of 3'-dye-labeled ssDNA relative to brightest sequence (3'-GCGCG) (fraction); higher = brighter dye fluorescence (less quenching)
measurement-conditions: dye: Cy5 (3' terminal)
Label t when background-corrected fluorescence is at or above 0.4; otherwise label f.

Past entries and their recorded results:
- entry-sequence: "TTTTTTGATGATGATGAGCATTTTTTTTTTTTTTTCCCCT"
  category-label: "f"
- entry-sequence: "TTTTTGCATGAGCATGCTGATTTTTTTTTTTTTTTTCTAC [CATCT]"
  category-label: "f"
- entry-sequence: "TTTTTTGCTGAGCATGATGCTTTTTTTTTTTTTTTACTCA"
  category-label: "f"
- entry-sequence: "TTTTTGCATGATGAGCATGATTTTTTTTTTTTTTTTCCTC [CTCCT]"
  category-label: "f"
- entry-sequence: "TTTTTTCATCATCAGCATCATTTTTTTTTTTTTTTGGGTG [GTGGG]"
  category-label: "t"

Quick check, background-corrected fluorescence >= 0.4? TTTTTTCATGATCATGCGCATTTTTTTTTTTTTTTGCGAT [TAGCG] t

Kindly determine if background-corrected fluorescence recorded for TTTTTTGCGCATGATCATGATTTTTTTTTTTTTTTATCGC [CGCTA] is above or exactly 0.4. t

====

assay-notes: background-corrected fluorescence of 3'-dye-labeled ssDNA relative to brightest sequence (3'-GCGCG) (fraction); higher = brighter dye fluorescence (less quenching)
measurement-conditions: dye: Cy5 (3' terminal)
In this section, each of the sequences is paired with its reported background-corrected fluorescence.
Give the figure by itself; no unit, no explanation.

Example sequences with recorded background-corrected fluorescence:
- entry-sequence: "TTTTTTGATGATCATGCTCATTTTTTTTTTTTTTTCCGAG [GAGCC]"
  background-corrected fluorescence: 0.501
- entry-sequence: "TTTTTGCATCATGATGCGCATTTTTTTTTTTTTTTTGCAT [TACGT]"
  background-corrected fluorescence: 0.394
- entry-sequence: "TTTTTTCAGCATCATGCTGATTTTTTTTTTTTTTTGTGAC [CAGTG]"
  background-corrected fluorescence: 0.387
- entry-sequence: "TTTTTTCAGCAGCATCATGATTTTTTTTTTTTTTTGTTGC [CGTTG]"
  background-corrected fluorescence: 0.389
- entry-sequence: "TTTTTTGATGCTCAGCATGATTTTTTTTTTTTTTTCAGTC [CTGAC]"
  background-corrected fluorescence: 0.373

State, in one line, measured background-corrected fluorescence of TTTTTTCAGCATGCTCAGCATTTTTTTTTTTTTTTGTAGT [TGATG] 0.459

Report background-corrected fluorescence, nothing else, for this sequence: TTTTTTGCTCAGCATGATGATTTTTTTTTTTTTTTAGTCC [CCTGA] 0.329

Determine from records and report background-corrected fluorescence for TTTTTTCATCATGAGCATGCTTTTTTTTTTTTTTTGGCTA [ATCGG] 0.42

====

assay-notes: background-corrected fluorescence of 3'-dye-labeled ssDNA relative to brightest sequence (3'-GCGCG) (fraction); higher = brighter dye fluorescence (less quenching)
measurement-conditions: dye: Cy5 (3' terminal)
measurement-name: background-corrected fluorescence
# print the numeric value only

For the sequence TTTTTTGATGCTGCTCATGATTTTTTTTTTTTTTTCAAGC [CGAAC] , give its measured background-corrected fluorescence value. 0.426

Identify measured background-corrected fluorescence associated with TTTTTTGATGATGAGCATGCTTTTTTTTTTTTTTTCCCTA [ATCCC] 0.35

Please report background-corrected fluorescence for the following sequence: `TTTTTTCATGATGATGATCATTTTTTTTTTTTTTTGCCCG` 0.394

Answer with reported background-corrected fluorescence of TTTTTTCAGCATCATGCTCATTTTTTTTTTTTTTTGTGAG [GAGTG] 0.472

Give reported background-corrected fluorescence value for TTTTTTCATGATGAGCAGCATTTTTTTTTTTTTTTGCCTT [TTCCG] 0.367

====

# background-corrected fluorescence listing for each entry below
assay-notes: background-corrected fluorescence of 3'-dye-labeled ssDNA relative to brightest sequence (3'-GCGCG) (fraction); higher = brighter dye fluorescence (less quenching)
measurement-conditions: dye: Cy3 (3' terminal)
Form: value (number only, do not type unit).

// worked examples, background-corrected fluorescence included
- entry-sequence: "TTTTTGCATCATGATGATCATTTTTTTTTTTTTTTTGCCG [GCCGT]"
  background-corrected fluorescence: 0.519
- entry-sequence: "TTTTTGCAGCATGCTCAGCATTTTTTTTTTTTTTTTTAGT [TGATT]"
  background-corrected fluorescence: 0.619
- entry-sequence: "TTTTTTCATGCGCATGATGCTTTTTTTTTTTTTTTGATCA [ACTAG]"
  background-corrected fluorescence: 0.535
- entry-sequence: "TTTTTTGATCATGATCAGCATTTTTTTTTTTTTTTCGCGT [TGCGC]"
  background-corrected fluorescence: 0.783
- entry-sequence: "TTTTTTCATGCGCAGCATGCTTTTTTTTTTTTTTTGATTA [ATTAG]"
  background-corrected fluorescence: 0.547
- entry-sequence: "TTTTTTGCGCATCATGCTGATTTTTTTTTTTTTTTATGAC [CAGTA]"
  background-corrected fluorescence: 0.469
- entry-sequence: "TTTTTGCATGCTGATCATGCTTTTTTTTTTTTTTTTACGA [AGCAT]"
  background-corrected fluorescence: 0.627
- entry-sequence: "TTTTTTCATGATCATGATCATTTTTTTTTTTTTTTGCGCG"
  background-corrected fluorescence: 1

For TTTTTTGCTGATGCGCATGCTTTTTTTTTTTTTTTACATA [ATACA] , write its background-corrected fluorescence. 0.591

Data credit: the supplement of paper PMC9428881
